Test system: A549/ATCC NSCLC
Test: NCI-60 one-dose screen, 48 h (100 = growth as untreated, 0 = no growth, -100 = all killed)
Conditions: 10 µM unless noted
Compounds without any hit were thinned out: in the full panel of roughly 83,000, 20% have a hit.
Threshold 70%: growth strictly smaller gives 1, otherwise -1.

>  <Compound>
O=c1[nH]c(-c2ccccn2)nc2sc3c(c12)CCCCC3

>  <System Under Test>
A549/ATCC NSCLC

>  <Label Value>
1

$$$$

Inquiry: Field: below-cutoff. Rule: recorded growth strictly less than 70%. Subject: CCCCCC(=O)Oc1ccc(/C(=C(\C)c2ccccc2)c2ccc(OCCN(CC)CC)cc2)cc1
Reply text: 1

Inquiry: Field: below-cutoff. Rule: recorded growth strictly less than 70%. Subject: COc1ccc(/C=c2/c(=O)[nH]c3nc4sc(C)c(C)c4c(=O)n23)cc1
Reply text: -1

Inquiry: Field: below-cutoff. Rule: recorded growth strictly less than 70%. Subject: O=C(/C=C/c1cc2ccccc2[nH]c1=O)/C=C/c1cc2ccccc2[nH]c1=O
Reply text: 1

Inquiry: Field: below-cutoff. Rule: recorded growth strictly less than 70%. Subject: O=C([C@@H](COCc1ccccc1)N1C(=O)[C@@H](N2C(=O)OC[C@@H]2c2ccccc2)[C@H]1/C=C/c1ccccc1)N1CCC(CCN2CCCCC2)CC1
Reply text: -1

Inquiry: Field: below-cutoff. Rule: recorded growth strictly less than 70%. Subject: NS(=O)(=O)c1ccc(-n2ncc3c(=O)[nH]c(CN4CCN(c5cc6c(cc5F)c(=O)c(C(=O)O)cn6C5CC5)CC4)nc32)cc1
Reply text: -1

Inquiry: Field: below-cutoff. Rule: recorded growth strictly less than 70%. Subject: COc1ccccc1-c1ccc2c(N)c(C(=O)c3ccc4c(c3)OCO4)sc2n1
Reply text: 1

Inquiry: Field: below-cutoff. Rule: recorded growth strictly less than 70%. Subject: O=C(CO[N+](=O)[O-])Nc1ccc(C(=O)/C=C/c2ccc(Cl)cc2)cc1
Reply text: 1

Inquiry: Field: below-cutoff. Rule: recorded growth strictly less than 70%. Subject: CC1=C(C)C(=O)OC([C@](C)(O)[C@]2(O)CC[C@@]3(O)[C@@H]4C[C@H]5O[C@]56CC=CC(=O)[C@]6(C)[C@H]4CC[C@]23COC(=O)c2ccc(C)o2)C1 (some centres not stated)
Reply text: 1

Inquiry: Field: below-cutoff. Rule: recorded growth strictly less than 70%. Subject: CC1=C(NCCN2CCCC2)C(=O)c2c(OCc3ccc(C(F)(F)F)cc3)cccc2C1=O
Reply text: -1

Inquiry: Field: below-cutoff. Rule: recorded growth strictly less than 70%. Subject: O=[N+]([O-])c1cccc(-c2nc3sccn3c2-c2ccnc(NCCCNS(=O)(=O)c3ccc(F)cc3)n2)c1
Reply text: 1

Inquiry: Field: below-cutoff. Rule: recorded growth strictly less than 70%. Subject: CCCCCCCCCCCCCCCC(=O)OCC1OC(n2cnc3c(=S)nc(N)[nH]c32)C(OC(=O)CCCCCCCCCCCCCCC)C1OC(=O)CCCCCCCCCCCCCCC (configuration not stated)
Reply text: -1

Inquiry: Field: below-cutoff. Rule: recorded growth strictly less than 70%. Subject: CCN(CC)C12CCCCC1(C)C(C#N)(C#N)C(C#N)=C(N)O2 (configuration not stated)
Reply text: -1

Inquiry: Field: below-cutoff. Rule: recorded growth strictly less than 70%. Subject: CCN1CCN(Cc2ccc(NC(=O)Nc3nc4ccc(Oc5ccnc(C(=O)NC)c5)cc4s3)cc2C(F)(F)F)CC1
Reply text: 1

Inquiry: Field: below-cutoff. Rule: recorded growth strictly less than 70%. Subject: COc1ccc(-c2cn3c(-c4ccc(OC)cc4)cnc3c(Oc3ccc4c(C)cc(=O)oc4c3)n2)cc1
Reply text: 1

Inquiry: Field: below-cutoff. Rule: recorded growth strictly less than 70%. Subject: O=C(CNC1C2CC3CC(C2)CC1C3)Sc1nnc2sc3ccccc3n12 (configuration not stated)
Reply text: -1

Inquiry: Field: below-cutoff. Rule: recorded growth strictly less than 70%. Subject: O=C(CCCCN1CCOCC1)Nc1ccc(Cn2nnc3c2C(=O)c2nnn(Cc4ccc(NC(=O)CCCCN5CCOCC5)cc4)c2C3=O)cc1
Reply text: 1
